System: Streptococcus agalactaciae CMX 508
Test Protocol: In vitro antibacterial activity, MIC by agar dilution
Format: cell-based
Protocol Conditions: BHI agar, 35-37°C, 20-24 hours, unit assumed
Where a name gives a salt, the structure may show the parent alone.
Measured Quantity: MIC values (µg/mL)

1. CCc1cc(C(=O)O)c(=O)n2ccc(N3CCC(N)C3)cc12.Cl (stereo not drawn)    25
2. O=C(O)c1cn(C2CC2)c2cc(N3CCNCC3)c(F)cc2c1=O [Cntl, Ciprofloxacin, reference compound]    0.39
3. C[C@H](N)C(=O)N[C@@H](C)C(=O)NC1CCN(c2nc3c(-c4ccc(F)cc4F)cc(C(=O)O)c(=O)n3cc2F)C1 (stereo partly drawn) [Example 168, hydrochloride]    6.2

* * *

Tested on: Klebsiella pneumoniae ATCC 8045
Test Protocol: In vitro antibacterial activity, MIC by agar dilution
Type: cell-based
Protocol Conditions: BHI agar, 35-37°C, 20-24 hours, unit assumed
Structures can show the parent of a compound that is named as a salt.
Recorded MIC values values for a group of compounds are listed next.
Measured Quantity: MIC values (µg/mL)

1) CC(=O)N[C@H]1C[C@H](C)N(c2nc3c(-c4ccc(F)cc4F)cc(C(=O)O)c(=O)n3cc2F)C1    0.39
2) CN1CCN(c2nc3c(-c4ccc(F)cc4F)cc(C(=O)O)c(=O)n3cc2F)CC1    0.2
3) C[C@H](N)C(=O)N[C@@H](C)C(=O)NC1CCN(c2nc3c(-c4ccc(F)cc4F)cc(C(=O)O)c(=O)n3cc2F)C1 (some centres unmarked) [Example 168, hydrochloride]    3.1
4) C[C@H]1C[C@H](N)CN1c1nc2c(-c3ccc(F)cc3F)cc(C(=O)O)c(=O)n2cc1F [Example 171, hydrochloride]    0.01
5) CN1CCN(c2nc3c(-c4ccc(F)cc4)cc(C(=O)O)c(=O)n3cc2F)CC1 [Example 1]    0.2

* * *

Tested on: Enterobacter aerogenes ATCC 13048
Test Protocol: In vitro antibacterial activity, MIC by agar dilution
Assay type: cell-based
Protocol Conditions: BHI agar, 35-37°C, 20-24 hours, unit assumed
Procedure: Each plate was inoculated with 1:100 (or 1:10 for slow growing strains, primarily Micrococcus and Streptococcus) dilutions of up to 32 different microorganisms, using a Steers replicator block calibrated to deliver approximately 10^4 colony forming units (CFUs). The inoculated plates were incubated at from about 35°C to about 37°C for approximately 20-24 hours. […]
Where a name gives a salt, the structure may show the parent alone.
The entries below come with measured MIC values values attached.
Measured Quantity: MIC values

1) CN1CCN(c2nc3c(-c4ccc(F)cc4)cc(C(=O)O)c(=O)n3cc2F)CC1 [Example 1]    0.78 mg/L
2) C[C@H](N)C(=O)N[C@@H](C)C(=O)NC1CCN(c2nc3c(-c4ccc(F)cc4F)cc(C(=O)O)c(=O)n3cc2F)C1 (stereo partly drawn) [Example 168, hydrochloride]    3.1 mg/L
3) CC(=O)N[C@H]1C[C@H](C)N(c2nc3c(-c4ccc(F)cc4F)cc(C(=O)O)c(=O)n3cc2F)C1    3.1 mg/L
